experiment: Determination of binding constants of inhibitor (NNIC) in Model B detergent, Suc-AAPF-pNA read-out; type: biochemical; conditions: Ki of variant with the mutation relative to variant without the mutation, <1.0 beneficial
# Inhibitor-binding relative Kimutation, inhibitor binding in Model B per record follows
MEASURED PARAMETER: Inhibitor-binding relative Kimutation, inhibitor binding in Model B

| MOLECULE | READING |
| --- | --- |
| K146F, S173P, S175P, F180Y: TY145 protease (SEQ ID NO 3) variant with these substitutions (protein, listed as Bacillus sp.) AVPSTQTPWGIKSIYNDQSITKTTGGSGIKVAVLDTGVYTSHLDLAGSAEQCKDFTQSNPLVDGSCTDRQGHGTHVAGTVLAHGGSNGQGVYGVAPQAKLWAYKVLGDNGSGYSDDIAAAIRHVADEASRTGSKVVINMSLGSSAFDSLIASAVDYAYGKGVLIVAAAGNSGPGPNTIGYPGGLVNAVAVAALENVQQNGTYRVADFSSRGNPATAGDYIIQERDIEVSAPGASVESTWYTGGYNTISGTSMATPHVAGLAAKIWSANTSLSHSQLRTELQNRAKVYDIKGGIGAGTGDDYASGFGYPRVK | 0.25 |
| K146N, S173P, S175P, F180Y: TY145 protease (SEQ ID NO 3) variant with these substitutions (protein, listed as Bacillus sp.) AVPSTQTPWGIKSIYNDQSITKTTGGSGIKVAVLDTGVYTSHLDLAGSAEQCKDFTQSNPLVDGSCTDRQGHGTHVAGTVLAHGGSNGQGVYGVAPQAKLWAYKVLGDNGSGYSDDIAAAIRHVADEASRTGSKVVINMSLGSSANDSLIASAVDYAYGKGVLIVAAAGNSGPGPNTIGYPGGLVNAVAVAALENVQQNGTYRVADFSSRGNPATAGDYIIQERDIEVSAPGASVESTWYTGGYNTISGTSMATPHVAGLAAKIWSANTSLSHSQLRTELQNRAKVYDIKGGIGAGTGDDYASGFGYPRVK | 0.93 |
